molecular target: RheoSwitch® (CHO-K1_RS-1 cells, firefly Luciferase reporter) (Choristoneura fumiferana); assay: in vitro gene switch assay (fLUC Luciferase expression, potency screen); format: cell-based; details: read-out: fLUC assay EC50, 24 hours with compound, 25 μM to 2.5 pM, figure in parentheses after a value not defined
Sequence (O77240 1-513): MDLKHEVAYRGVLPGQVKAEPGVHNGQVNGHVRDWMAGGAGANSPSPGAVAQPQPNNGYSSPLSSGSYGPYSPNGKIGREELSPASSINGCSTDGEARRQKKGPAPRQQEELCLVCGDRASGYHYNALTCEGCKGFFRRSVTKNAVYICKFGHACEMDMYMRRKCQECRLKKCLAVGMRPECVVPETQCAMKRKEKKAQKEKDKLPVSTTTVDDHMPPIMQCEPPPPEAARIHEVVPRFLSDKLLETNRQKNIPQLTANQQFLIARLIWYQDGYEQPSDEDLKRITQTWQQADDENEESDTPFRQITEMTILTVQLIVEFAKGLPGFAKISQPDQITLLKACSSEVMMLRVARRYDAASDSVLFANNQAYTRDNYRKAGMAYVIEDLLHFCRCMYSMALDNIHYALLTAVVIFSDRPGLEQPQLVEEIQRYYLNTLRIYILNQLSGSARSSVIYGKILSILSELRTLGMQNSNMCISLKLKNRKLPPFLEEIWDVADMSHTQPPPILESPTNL
observation type: EC50 (µM)
Numbers only, in µM.

Worked examples, 10 compounds total:
CC[C@H](N(NC(=O)c1ccc2c(c1)B(O)OC2)C(=O)c1cc(C)cc(C)c1)C(C)(C)C    1
Cc1cc(C)cc(C(=O)N(NC(=O)c2c(F)cc(B(O)O)cc2F)C(C)(C)C)c1    0.796
CCCC(N(NC(=O)c1cccc(B2OC(C)(C)C(C)(C)O2)c1C)C(=O)c1cc(OC)ccc1OC)C(C)(C)C (racemic)    22.2
CCC[C@@H](N(NC(=O)c1ccc(B(O)O)c(F)c1)C(=O)c1cc(C)cc(C)c1)C(C)(C)C    0.105
CC[C@@H](N(NC(=O)c1ccc(B(O)O)c(OCCOC)c1C)C(=O)c1cc(C)cc(C)c1)C(C)(C)C    1.67
CCc1c(OC)cccc1C(=O)NN(C(=O)c1ccc(B(O)O)cc1)C(C)(C)C    5.25
Cc1cc(C)cc(C(=O)N(NC(=O)c2ccc3c(c2C)OB(O)CCC3)C(C)(C)C)c1    0.203
CC[C@H](N(NC(=O)c1ccc2c(c1C)OCCOB2O)C(=O)c1cc(C)cc(C)c1)C(C)(C)C    0.867
Cc1cc(C)cc(C(=O)N(NC(=O)c2ccc(B(O)O)cc2Cl)C(C)(C)C)c1    1.63
[2H]C([2H])([2H])c1cc(C(=O)N(NC(=O)c2ccc3c(c2C)OCCOB3O)C(C)(C)CC)cc(C([2H])([2H])[2H])c1    0.181

Would you be so kind as to report EC50 for each listed record?
1. Cc1cc(C)cc(C(=O)N(NC(=O)c2ccc3c(c2F)COB3O)C(C)(C)C)c1
2. CC[C@@H](N(NC(=O)c1ccc(B(O)O)cc1Cl)C(=O)c1cc(C)cc(C)c1)C(C)(C)C
3. Cc1cc(C)cc(C(=O)N(NC(=O)c2ccc(B(O)O)cc2)C(C)(C)C)c1

# output
[3.18, 0.183, 1.01]

* * *

Answer each item with its documented Tmax.
test: Pharmacokinetic (PK) study, oral gavage, plasma LC-MS/MS; settings: female, Sprague Dawley, rat, po, 10 mg/kg, Tmax, female Sprague Dawley rats, oral gavage 10 mg/kg, Capryol 90/Triacetin (1:1, v/v)
Remember to quote the unit after the number.

Worked examples, 2 molecules total:
CCC[C@@H](N(NC(=O)c1ccc(B(O)O)cc1F)C(=O)c1cc(C)cc(C)c1)C(C)(C)C    2.7 h
CC[C@@H](N(NC(=O)c1ccc2c(c1F)COB2O)C(=O)c1cc(C)cc(C)c1)C(C)(C)C    3 h

Would you be so kind as to report Tmax for each listed record?
1. CCC[C@@H](N(NC(=O)c1cccc(OC)c1C)C(=O)c1cc(C)cc(C)c1)C(C)(C)C [Cpd. A, reference compound]
2. Cc1cc(C)cc(C(=O)N(NC(=O)c2ccc3c(c2F)B(O)OC3)C(C)(C)C)c1
3. Cc1cc(C)cc(C(=O)N(NC(=O)c2cccc(B(O)O)c2F)C(C)(C)C)c1
4. CCC[C@@H](N(NC(=O)c1ccc(B(O)O)c(F)c1)C(=O)c1cc(C)cc(C)c1)C(C)(C)C
5. CCC[C@@H](N(NC(=O)c1cccc(OC)c1CC)C(=O)c1cc(C)cc(C)c1)C(C)(C)C [Cpd. B, reference compound]

# output
4 h
3 h
4 h
3 h
3.7 h

* * *

assay: Pharmacokinetic (PK) study, oral gavage, plasma LC-MS/MS; details: female, Sprague Dawley, rat, po, 10 mg/kg
observation type: Cmax
Remember to quote the unit after the number.

# input Report Cmax for Cc1cc(C)cc(C(=O)N(NC(=O)c2ccc3c(c2C)OCCOB3O)C(C)(C)C)c1 please.
# output 1280 ng/mL

* * *

experiment: Pharmacokinetic (PK) study, oral gavage, plasma LC-MS/MS; details: oral clearance, female Sprague Dawley rats, oral gavage 10 mg/kg, Capryol 90/Triacetin (1:1, v/v)
Answer each item with its documented Clearance.

CC[C@@H](N(NC(=O)c1ccc2c(c1F)COB2O)C(=O)c1cc(C)cc(C)c1)C(C)(C)C    6.63 mL/min/kg
CCC[C@@H](N(NC(=O)c1cccc(OC)c1CC)C(=O)c1cc(C)cc(C)c1)C(C)(C)C [Cpd. B, reference compound]    183.83 mL/min/kg
CCC[C@@H](N(NC(=O)c1ccc(B(O)O)c(F)c1)C(=O)c1cc(C)cc(C)c1)C(C)(C)C    6.78 mL/min/kg
CCC[C@@H](N(NC(=O)c1cccc(OC)c1C)C(=O)c1cc(C)cc(C)c1)C(C)(C)C [Cpd. A, reference compound]    213.1 mL/min/kg
Cc1cc(C)cc(C(=O)N(NC(=O)c2cccc(B(O)O)c2F)C(C)(C)C)c1    8.88 mL/min/kg
Cc1cc(C)cc(C(=O)N(NC(=O)c2ccc3c(c2F)B(O)OC3)C(C)(C)C)c1    3.57 mL/min/kg

# input Report Clearance for Cc1cc(C)cc(C(=O)N(NC(=O)c2ccc3c(c2C)OCCOB3O)C(C)(C)C)c1 please.
# output 10.2 mL/min/kg

* * *

assay: in vivo; conditions: female, Sprague Dawley, rat, po, 10 mg/kg, Cmax
observation type: Cmax

# input Report Cmax for Cc1cc(C)cc(C(=O)N(NC(=O)c2ccc3c(c2C)OCCO3)C(C)(C)C)c1 please.
# output 112 ng/mL

* * *

Answer each item with its documented pEC50.
target: RheoSwitch® (CHO-K1_RS-1 cells, firefly Luciferase reporter) (Choristoneura fumiferana); assay: in vitro gene switch assay (fLUC Luciferase expression, potency screen); assay type: cell-based; details: read-out: fLUC assay EC50 Run 2, 24 hours with compound, Run 2
pEC50: −log10 of the molar value.

Would you be so kind as to report pEC50 for each listed record?
1. Cc1cc(C)cc(C(=O)N(NC(=O)c2ccc3c(c2F)COB3O)C(c2ccccc2)C(C)(C)C)c1 (stereo not drawn)
2. CCOCc1ccc(C(=O)NN(C(=O)c2cc(C)cc(C)c2)[C@H](CC)C(C)(C)C)c(F)c1B(O)O
3. CC[C@@H](N(NC(=O)c1ccc(B(O)O)cc1F)C(=O)c1cc(C)cc(C)c1)C(C)(C)C

# output
["~6.52", "~6.57", 7.18]

* * *

Target: RheoSwitch® (CHO-K1_RS-1 cells, firefly Luciferase reporter) (Choristoneura fumiferana)
Assay: in vitro gene switch assay (fLUC Luciferase expression, potency screen)
Type: cell-based
Conditions: read-out: fLUC assay EC50, 24 hours with compound, 25 μM to 2.5 pM, figure in parentheses after a value not defined
Procedure: Gene switch assays are disclosed, e.g., in U.S. Pat. Nos. 8,076,517; 7,456,315; 7,304,161; and 6,258,603. […] The cells were incubated with the compound for 24 hours in a humidified CO2 incubator at 37° C. […] The reagent was incubated with the cells for 10-120 minutes prior to reading on a Molecular Devices Spectramax L luminometer. […]
pEC50: −log10 of the molar value.
We use 7 as the dividing line for pEC50: on or above the line is True, below is False.

Cc1cc(C)cc(C(=O)N(NC(=O)c2ccc3c(c2C)OCCOB3O)C(C)(C)C)c1    False
Cc1cc(C)cc(C(=O)N(CC(C)(C)C)NC(=O)c2ccc3c(c2C)OCCOB3O)c1    False
CCC(c1ccccc1)N(NC(=O)c1ccc(B(O)O)cc1F)C(=O)c1cc(C)cc(C)c1 (racemic) [compound 18]    False

# input Quick check, pEC50 >= 7? CCC[C@@H](N(NC(=O)c1ccc(CCCB2OC(C)(C)C(C)(C)O2)c(OC(F)F)c1C)C(=O)c1cc(C)cc(C)c1)C(C)(C)C
# output True

* * *

test: in vivo; details: female, Sprague Dawley, rat, po, 10 mg/kg, AUC0−t
observation type: AUC(0-t) (ng·h/mL)
Give bare numbers, in ng·h/mL.

# input Report AUC(0-t) for Cc1cc(C)cc(C(=O)N(NC(=O)c2ccc3c(c2C)OCCO3)C(C)(C)C)c1 please.
# output 510

* * *

Target: RheoSwitch® (CHO-K1_RS-1 cells, firefly Luciferase reporter) (Choristoneura fumiferana)
Test: in vitro gene switch assay (fLUC Luciferase expression, potency screen)
Format: cell-based
Conditions: read-out: fLUC assay EC50, 24 hours with compound, 25 μM to 2.5 pM, figure in parentheses after a value not defined
Experimental: Gene switch assays are disclosed, e.g., in U.S. Pat. Nos. 8,076,517; 7,456,315; 7,304,161; and 6,258,603. […] The cells were incubated with the compound for 24 hours in a humidified CO2 incubator at 37° C. […] The reagent was incubated with the cells for 10-120 minutes prior to reading on a Molecular Devices Spectramax L luminometer. […]
observation type: log10 EC50 (log10 of the value in µM)
// do not treat as linear: log10 of EC50, unit µM

Worked examples, 5 compounds total:
CCC[C@@H](N(NC(=O)c1ccc(B(O)O)cc1C(C)C)C(=O)c1cc(C)cc(C)c1)C(C)(C)C    0.09
Cc1cc(C)cc(C(=O)N(NC(=O)c2ccc3c(c2F)B(O)OC3)C(C)(C)C)c1    -0.19
CCC(C)(C)N(NC(=O)c1ccc2c(c1C)OCCOB2O)C(=O)c1cc(C)cc(C)c1    -0.45
CCC[C@@H](N(NC(=O)c1ccc(CCCB(O)O)c(OC)c1C)C(=O)c1cc(C)cc(C)c1)C(C)(C)C    -0.57
Cc1cc(C)cc(C(=O)N(NC(=O)c2ccc(B(O)O)cc2F)C(C)(C)C)c1    -0.57

Now consider the entry below.
# input Report log10 EC50 for CCC[C@@H](N(NC(=O)c1cccc(B(O)O)c1F)C(=O)c1cc(C)cc(C)c1)C(C)(C)C please.
# output -1.03
